Below: a set of entries, each annotated with reported Percent Effect.
measured target: Proteasome subunit beta (Trypanosoma cruzi) (UniProt O96673)
Sequence (O96673 as listed by the source): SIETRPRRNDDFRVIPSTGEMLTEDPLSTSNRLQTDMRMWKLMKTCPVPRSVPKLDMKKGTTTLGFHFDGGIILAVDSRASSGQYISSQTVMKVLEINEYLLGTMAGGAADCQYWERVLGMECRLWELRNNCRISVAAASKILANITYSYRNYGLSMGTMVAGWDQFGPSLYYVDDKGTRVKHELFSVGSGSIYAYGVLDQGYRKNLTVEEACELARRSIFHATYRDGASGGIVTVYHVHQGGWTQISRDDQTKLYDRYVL
assay notes: Trypanosoma cruzi proteasome chymotrypsin-like activity (TcProtChymo) assay. Also: in the data most compounds retested in dose-response had high values.
Assay type: functional
Parameters: scale not given: direction of the effect not stated beside the values
conditions used: 9.37 µM
endpoint: Percent Effect (%)

Cc1ccc(C(=O)N2CCSCC2)cc1NC(=O)NCCO	9.68
CN(c1ccc(C(C)(C)C)cc1)S(=O)(=O)c1cc(C(=O)O)cs1	-1.08
Cc1ccc(C(=O)Nc2cc(C(C)C)n[nH]2)cn1	10.3
O=C(CN1CCc2ccccc21)Nc1ccc(OC(F)F)cc1	21.1
CCCn1nc(C2CCNCC2)n(Cc2ccccc2)c1=O	10.2
CCc1n[nH]c(C2CN(Cc3nccn3CC)CCO2)n1 (configuration not stated)	9.62
COCc1c(C(=O)O)nnn1Cc1cccc(C(F)(F)F)c1	14.1
CNC(=O)c1nc2c(s1)CCN(C(=O)Cc1ccc(OC)cc1)CC2	0.369
O=C(CN1CCC(c2cccc(F)c2)C1)NCC(F)(F)F (configuration not stated)	18.1
COc1ccccc1CN1C(=O)O[C@@H]2CN(c3nccs3)C[C@@H]21	11.2
Cc1cc(NC(=O)C(c2cccc(F)c2)N2CCOCC2)ccn1 (configuration not stated)	10.6
Cn1cnnc1C1CCCN(C(=O)NCc2ccc3c(c2)OCO3)C1 (configuration not stated)	11.2

###

measured target: AMP-activated protein kinase, AMPK (Homo sapiens) (UniProt P54646+O43741+P54619+Q9UGJ0+Q9Y478+Q13131+Q9UGI9)
assay notes: AMP-dependent Kinase enzyme assay. An in vitro enzyme assay that detects ADP turnover that is directly proportional to AMPK activity. This uses naive AMPK that is activated during the assay with MK-8722
Type: functional
Parameters: scale not given: direction of the effect not stated beside the values
conditions used: 30 µM
Here the recorded Percent Effect is given for each entry.
endpoint: Percent Effect (%)

COc1ccc(OCCCNC(=O)NCc2csc(C)n2)cc1	2.75
COc1c(CNCc2cnn(C)c2)c(C(C)C)nn1C	-11.3
Cc1nn(C)c(C)c1C1CCCN1C(=O)CCNc1ncccn1 (centres undefined)	-8.92
CC(C)NC(=O)N1CCN(S(=O)(=O)C2CC2)CC2(CC(=O)N(C)C2)C1 (centres undefined)	5.32
COc1c(CNCCNC(=O)c2ccc(C)cc2)c(C)nn1C	-5.83
COc1ccccc1C1(C(=O)NCCN2CCOCC2)CCOCC1	-1.78
CC(C)CCc1noc(CN2CCCN(C(=O)c3ccco3)CC2)n1	-0.00644
Cc1nnc(NC(=O)NCc2ccc(N3CCN(C)CC3)nc2)s1	-3.09
CCCNC(=O)c1sc(Nc2ccc(Cl)cn2)nc1C	-1.88
Cc1nc2c(c(N3CC=CC3)n1)CCN(Cc1ccoc1)CC2	2.16
CS(=O)(=O)CCSc1cccc(C#N)c1	-4.21
CN(CC1COc2ccccc2O1)C(=O)NCCCn1ccnc1 (centres undefined)	12.1
Cc1nc(CNC(C)c2ccc(OCC(=O)NC3CC3)cc2)cs1 (centres undefined)	-0.957
Cc1cc(C)n(CC2CCCN2C(=O)c2c[nH]c3ncccc23)n1 (centres undefined)	10.7
CCCc1n[nH]c(C2CN(CCNS(=O)(=O)CC)CCO2)n1 (centres undefined)	4.75
CCCc1nc(C)cc(N2CCC3(CCC(=O)N(CC4CC4)C3)CC2)n1	-0.987
O=C([C@H]1CN(CCc2ccccc2)C[C@H]2OCC[C@@H]12)N1CCCO1	-7.7
COc1ccc(OCc2nc(C(=O)N3CC[C@H](O)[C@@H](O)C3)co2)cc1	-0.405
CCn1ncnc1C(C)NC(=O)C1CCN(C(C)C)CC1 (centres undefined)	-4.36
c1ccc(OCC2CC3(CCN(Cc4ccncc4)CC3)CO2)nc1 (centres undefined)	6.58
Cc1cnn(CC(C)NCc2csc(-c3ccco3)n2)c1 (centres undefined)	10.6
COc1c(C2CCCN2C(=O)c2ccc(Cl)o2)c(C)nn1C (centres undefined)	-4.28
CCC(NC(=O)C1CCN(S(C)(=O)=O)CC1)c1ccc(OC)c(OC)c1 (centres undefined)	3.25
O=C(CNC(=O)N1CCc2c([nH]c3ccc(Cl)cc23)C1)N1CCOCC1	11.7

###

measured target: Protein translocase subunit SecA (Escherichia coli (strain K12))
assay notes: Assay to Identify E. coli SecA ATPase Inhibitors
Assay type: functional
Set-up: scale not given: direction of the effect not stated beside the values
conditions used: 30 µM
Potency and affinity values are given separately.
endpoint: Percent Effect (%)

CC(C)c1nc(CCNC(=O)NCc2ccnc(N(C)C)c2)cs1	-3.48
CCn1ccnc1CN1CCN(CCOc2ccccc2OC)CC1	-1.18
COc1c(C)cnc(CN2CCC(N(C)C(C)C(N)=O)CC2)c1C (stereo unspecified)	-2.36
O=C([C@@H]1C[C@@H]2CCN(CCc3ccccc3)C[C@H]2O1)N1CCCC1	1.08
CN(C)C(=O)CO[C@H]1CN(Cc2ccc(F)cc2)[C@@H]2CCCO[C@H]12	-4.67
CCc1n[nH]c(C2CN(Cc3nccn3CC)CCO2)n1 (stereo unspecified)	-0.0966
c1coc(CN2Cc3nccn3CC(Cn3cncn3)C2)c1 (stereo unspecified)	-4.49
Cc1nc(C)n(CC2CCCN(Cc3nc(C4CC4)no3)C2)n1 (stereo unspecified)	-2.19
CCOCC1CN(C(=O)CS(C)(=O)=O)Cc2cnn(C)c21 (stereo unspecified)	-1.67
COc1cc(CC(O)CO)c(OC)c2c1OCO2 (stereo unspecified)	-6.55
CC(C)N(C)S(=O)(=O)N(C)Cc1ccc2c(c1)OCO2	-6.28

###

measured target: Protein translocase subunit SecA (Escherichia coli (strain K12))
assay notes: Assay to Identify E. coli SecA ATPase Inhibitors
Type: functional
Parameters: scale not given: direction of the effect not stated beside the values
conditions used: 30 µM
Results with a measured potency or affinity are listed apart.
endpoint: Percent Effect (%)

CC(C)CC(=O)N1CCCn2cnc(CN3CCCC3=O)c2C1	-3.7
COCC1CN(Cc2ccncc2)Cc2nnn(CC3CC3)c21 (centres undefined)	-1.08
Cc1ccc(O)c(CNC2CCc3nc(C(C)C)nn3C2)n1 (centres undefined)	-9.46
CCc1nc2ccccc2c(=O)n1CC1(O)CCN(S(C)(=O)=O)CC1	-1.91
CSc1ncccc1C(=O)N1CCC(c2nc3c(C)cccc3[nH]2)CC1	-5.33
CCn1nc(CC(C)C)cc1C(=O)NCCCOC	-2.12
COc1ccc(C(=O)N2CCCCC2c2nc(C)cs2)nn1 (centres undefined)	-4.04
Cn1cc(-c2cnc(N3CCOCC3)nc2)cc1C(=O)NCCO	-0.798
CN(C)c1ncnc2c1CCN(CC1CCCC1)CC2	-3.48
CCc1nc(CC(=O)N2CCn3c(nnc3C(C)C)C2)cs1	-3.31
O=S(=O)(N1CCCCC1)N1CCc2nc(C3CCNCC3)ncc2C1	-2.16
COc1ccc(OCC(=O)NS(=O)(=O)c2cc(F)ccc2F)cc1	-8
COCCN1C(=O)CO[C@H]2CN(Cc3c[nH]nc3-c3ccccc3)C[C@@H]21	-5.09
Cc1nn(C)c(C)c1C1CCCN1C(=O)CCNc1ncccn1 (centres undefined)	-5.59
O=C(COc1coc(CN2CCCCCC2)cc1=O)c1ccccc1	-5.87
CC(C)c1nc2c(n1C)CCN(CC(=O)Nc1ccc(Cl)cn1)C2	-1.64
COc1ccc(CN2CCc3ncnc(OC(C)C)c3CC2)cc1	2.24
Cc1ncccc1OC1(C(=O)NCCCN2CCOCC2)CCNCC1	-0.6
Cc1nc(C)n(C2CCCN(C(=O)CCCOc3ccccc3)C2)n1 (centres undefined)	-1.32
CN(Cc1cn2c(n1)CN(C(=O)CC1CC1)CC2)Cc1ccco1	-3.7
Cc1cc(NC(=O)CN2CCCC2c2noc(C3CC3)n2)no1 (centres undefined)	-4.72
CN(Cc1cccc(Cl)c1)S(=O)(=O)N1CCOCC1	-3.38
O=C(NCC(F)(F)F)C1CSCN1S(=O)(=O)c1ccc(F)cc1 (centres undefined)	-4.1
CCn1cnnc1CNC(=O)c1cc(Cl)ccc1OC	-2.18

###

The molecules listed here are annotated with their Percent Effect.
measured target: Sialic acid-binding Ig-like lectin 9 (Homo sapiens) (UniProt Q9Y336)
Sequence (Q9Y336 whole entry): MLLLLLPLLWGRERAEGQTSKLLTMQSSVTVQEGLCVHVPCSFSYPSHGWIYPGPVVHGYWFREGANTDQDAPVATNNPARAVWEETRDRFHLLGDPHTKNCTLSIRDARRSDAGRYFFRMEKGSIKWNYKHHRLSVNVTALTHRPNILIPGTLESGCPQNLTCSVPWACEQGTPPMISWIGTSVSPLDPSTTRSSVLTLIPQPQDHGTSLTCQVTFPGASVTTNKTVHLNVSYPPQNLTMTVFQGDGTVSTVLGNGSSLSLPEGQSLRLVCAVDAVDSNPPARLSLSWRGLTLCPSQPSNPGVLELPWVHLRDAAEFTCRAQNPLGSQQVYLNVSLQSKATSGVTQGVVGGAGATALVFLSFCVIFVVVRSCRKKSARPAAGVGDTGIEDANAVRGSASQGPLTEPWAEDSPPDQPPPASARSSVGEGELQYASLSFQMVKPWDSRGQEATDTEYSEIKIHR
assay notes: Hs-Siglec9 ALPHAscreen SOP 20170721
Parameters: scale not given: direction of the effect not stated beside the values
conditions used: 10 µM
endpoint: Percent Effect (%)

Cc1cnn(C2CCCN(C(=O)c3ccn(C)c(=O)c3)C2)c1 (configuration not stated)	-4
O=C(COc1coc(CN2CCCCCC2)cc1=O)c1ccccc1	-6.78
Cc1ccccc1C1(C(=O)NCCN2CCCC2)CCOCC1	-0.683
O=C(C1CCC1)N1CCN(c2snc3ccccc23)CC1	-7.26
N#Cc1cccc(CS(=O)(=O)NCCC(O)c2ccccc2)c1 (configuration not stated)	7.18
CC(=O)Nc1ncc(S(=O)(=O)Nc2ccc(F)cc2)s1	-7.58
CCn1nc(C)c(CNC(=O)c2cn(CCC3CCCCN3)nn2)c1C (configuration not stated)	4.73
c1ccc(-c2noc(CN3CCC(c4ccn[nH]4)CC3)n2)cc1	9.87
O=C(NCCNc1cnccn1)C1CCN(C(=O)N2CCCC2)CC1	-1.57
CCCN(Cc1ccccc1)Cn1nc(C)c2c(C)onc2c1=O	25.6
COCC(c1cccc(C(F)(F)F)c1)N(C)C(=O)c1ccncc1 (configuration not stated)	-2.24
Cc1cccc(C2(CNC(=O)CCNS(C)(=O)=O)CCCC2)c1	11.3
Cc1cnn(CC(C)NCc2csc(-c3ccco3)n2)c1 (configuration not stated)	-3.77
COc1c(CNCc2ccc(C(=O)N(C)C)cc2)c(C)nn1C	-0.0396
O=C1NCCCCC1Sc1nnc(C2CC2)n1C1CC1 (configuration not stated)	-9.6
CC(C)(C)c1ncc2c(n1)CN(C(=O)c1ccncc1)C2	6.45
Cc1ccc(CN2CCC[C@]3(C(=O)O)CN(c4ncccn4)C[C@@H]3C2)o1	3.31
O=C([C@H]1CN(CCc2ccccc2)C[C@H]2OCC[C@@H]12)N1CCCO1	-0.861
CCOc1cccc(C(=O)NCCC(=O)Nc2ccncc2)c1	-0.438
COc1cccc(CNC(=O)C(c2cccc(F)c2)N2CCOCC2)c1 (configuration not stated)	6.14
CCn1nnc2c1C(COC)CN(C(=O)Cc1cccs1)C2 (configuration not stated)	-5.98
CCn1c(N)nc2cc(C(=O)NCCc3sccc3C)cnc21	24.5
Cc1cc(CNC(=O)NC(C)c2ccncc2)no1 (configuration not stated)	2.87
O=C(NCCc1ccccc1)C1CCC(Cn2cnnn2)CC1 (configuration not stated)	6.93
CC(=O)NC(C)(C)C(=O)Nc1ncc(Cc2ccc(C)c(F)c2)s1	3.12
CNC(=O)c1ccc(C2CN(C(=O)c3cncs3)CCO2)nc1 (configuration not stated)	6.66
Cc1ccc(N2CCCN(C(=O)c3cc(Cl)c[nH]3)CC2)nn1	4.6
Cc1nc(CN2C(=O)COC3(CCN(Cc4ccco4)CC3)C2C)cs1 (configuration not stated)	2.66
CCN(Cc1ccco1)C(=O)Nc1cc(C(F)(F)F)c[nH]c1=O	-6.37
CC(=O)N1CCCCC1c1cc(C(=O)N2CCOCC2)[nH]n1 (configuration not stated)	-1.29
COc1ccc(Cc2nnc(SC)o2)cc1OC	1.57
NC(=O)c1ccc(N2CCCCC2)c(NC(=O)c2cncc(Br)c2)c1	12.7
Cc1cc2c(=O)n3c(nc2s1)CCN(C(=O)c1cnn(C)c1C)CC3	5.04
CC(C)COCC(NC(=O)c1cccnc1)c1ccco1 (configuration not stated)	3.03
CCC(CO)N(Cc1ccccn1)C(=O)c1ccc2c(c1)CCO2 (configuration not stated)	36.5
O=C(c1ccco1)N1CCOCC2(C1)CN(c1ccccc1)C(=O)CO2 (configuration not stated)	17.4
Cn1cc(-c2csc(N3CCN(C(=O)OC(C)(C)C)CC3)n2)cn1	7.74
COCC1Cn2nnc(-c3cnn(C)c3)c2CN1Cc1ccc(C)s1 (configuration not stated)	-1.82
COc1cc(C(=O)N(Cc2ccc(F)cc2)C2CC2)cc2c1OCCO2	-4.56
COCCN1C(=O)CO[C@H]2CN(Cc3c[nH]nc3-c3ccccc3)C[C@@H]21	9.93
Cc1noc(C)c1CNC(=O)N1CCC(CO)CC1	6.04
Cc1cn2nc(N3CCCN(Cc4noc(C)n4)CC3)sc2n1	2.12
Cc1ccc(CNS(=O)(=O)CC2=NC(=O)n3cccc3C2=O)cc1	4.14
O=C(NCCCn1nc2ccccn2c1=O)NC1CCC(O)CC1 (configuration not stated)	3.96
Nc1cc2c(nn1)CCN(C(=O)CC1CCCC1)C2	16.5
Cc1nc(CN(C)C2CCN(Cc3nc4ccccc4s3)C2)no1 (configuration not stated)	14.1
Cc1nnc(N2CC[C@H]3C[C@@H](C(=O)NC4CCCC4)O[C@H]3C2)s1	-3.34

From: ChEMBL document CHEMBL3988442
